Let's look at some compounds and their measured IC50.
Target: USP7 (Homo sapiens);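 also: fluorescence intensity readout of USP7 enzymatic activity, reaction incubated 90 min at room temperature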
Sequence (Q93009 whole entry): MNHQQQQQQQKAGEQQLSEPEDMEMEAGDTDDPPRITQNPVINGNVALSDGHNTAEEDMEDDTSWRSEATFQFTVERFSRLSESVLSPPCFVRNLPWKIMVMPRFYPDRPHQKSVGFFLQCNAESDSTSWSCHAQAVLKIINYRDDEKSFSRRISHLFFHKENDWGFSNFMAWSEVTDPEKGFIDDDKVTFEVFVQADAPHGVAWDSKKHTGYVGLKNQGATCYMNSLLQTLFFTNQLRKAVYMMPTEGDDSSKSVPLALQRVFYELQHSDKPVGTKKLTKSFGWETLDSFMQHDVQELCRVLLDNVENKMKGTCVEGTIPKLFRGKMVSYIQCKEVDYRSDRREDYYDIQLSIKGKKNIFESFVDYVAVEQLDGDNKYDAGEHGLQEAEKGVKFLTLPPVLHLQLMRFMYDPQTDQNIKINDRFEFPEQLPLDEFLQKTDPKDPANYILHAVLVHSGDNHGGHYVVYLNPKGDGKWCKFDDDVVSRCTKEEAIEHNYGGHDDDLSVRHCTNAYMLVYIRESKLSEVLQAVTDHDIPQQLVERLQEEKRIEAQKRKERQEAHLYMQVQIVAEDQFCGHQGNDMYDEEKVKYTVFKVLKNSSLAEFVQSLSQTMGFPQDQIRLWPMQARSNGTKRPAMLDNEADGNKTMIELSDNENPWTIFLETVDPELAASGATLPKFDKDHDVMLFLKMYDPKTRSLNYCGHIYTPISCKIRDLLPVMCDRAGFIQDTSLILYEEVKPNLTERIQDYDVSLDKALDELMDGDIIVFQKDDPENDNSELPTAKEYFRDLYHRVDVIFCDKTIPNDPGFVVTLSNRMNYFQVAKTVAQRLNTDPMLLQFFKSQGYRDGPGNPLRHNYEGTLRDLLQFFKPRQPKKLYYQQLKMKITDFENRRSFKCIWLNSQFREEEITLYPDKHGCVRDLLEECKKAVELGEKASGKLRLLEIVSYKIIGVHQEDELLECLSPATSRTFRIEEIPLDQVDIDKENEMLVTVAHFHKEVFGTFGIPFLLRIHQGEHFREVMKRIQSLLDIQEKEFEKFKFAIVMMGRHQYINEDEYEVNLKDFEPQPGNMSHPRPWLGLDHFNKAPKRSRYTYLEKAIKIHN
reported metric: IC50

compound="O=C1CCC(=O)N1Cc1cc2nccc(-c3cc(Cl)cc4c3N([C@@H]3CC[C@@]5(CCCN5)C3)CCC4)c2s1 (single isomer, unassigned) [Example 179b]" target_of_assay="USP7 (Homo sapiens)" observed_value="10 to 100 nM"
compound="O=C1CCC(=O)N1Cc1cc2nccc(-c3cc(Cl)cc4c3N([C@@H]3CNC(CO)(CO)C3)CCC4)c2s1 (single isomer, unassigned) [Example 181a]" target_of_assay="USP7 (Homo sapiens)" observed_value="< 10 nM"
compound="N#Cc1cc(-c2ccnc3cc(Cn4c(=O)ccn(CC(F)F)c4=O)sc23)c2c(c1)[C@H]1C[C@H]1CN2[C@H]1CCNC1 [Example 117c]" target_of_assay="USP7 (Homo sapiens)" observed_value="10 to 100 nM"
compound="O=C1CCC(=O)N1Cc1cc2nccc(-c3cc(Cl)cc4c3N([C@@H]3CN(CCO)C5(CCC5)C3)CCC4)c2s1 [Example 141]" target_of_assay="USP7 (Homo sapiens)" observed_value="< 10 nM"
compound="O=c1ccn(CC(F)(F)F)c(=O)n1Cc1cc2nccc(-c3cc(Cl)cc4c3N(C3CNC3)CCC4)c2s1 [Example 24]" target_of_assay="USP7 (Homo sapiens)" observed_value="< 10 nM"
compound="N#Cc1cc(-c2ccnc3cc(Cn4c(=O)ccn(CC(F)F)c4=O)sc23)c2c(c1)[C@@H]1C[C@@H]1CN2[C@H]1CCNC1 [Example 117d]" target_of_assay="USP7 (Homo sapiens)" observed_value="< 10 nM"
compound="CO[C@H]1C[C@@H](N2CC[C@H](N3CCCc4cc(C#N)cc(-c5ccnc6cc(Cn7c(=O)ccn(CC(F)(F)F)c7=O)sc56)c43)C2)C1 [Example 85]" target_of_assay="USP7 (Homo sapiens)" observed_value="10 to 100 nM"
compound="N#Cc1cc(-c2ccnc3cc(Cn4c(=O)ccn(CC(F)(F)F)c4=O)sc23)c2c(c1)[C@@H]1C[C@@H]1CN2[C@@H]1CNC2(CCC2)C1 [Example 169]" target_of_assay="USP7 (Homo sapiens)" observed_value="< 10 nM"
compound="Cc1cnn(Cc2cc3nccc(-c4cc(C#N)cc5c4N(C4CNC6(CCC6)C4)CCC5)c3s2)c(=O)c1 (single isomer, unassigned) [Example 164a]" target_of_assay="USP7 (Homo sapiens)" observed_value="< 10 nM"
compound="O=c1cc(NC2CCC2)cnn1Cc1cc2nccc(-c3cc(Cl)cc4c3N(C3CNC3)CCC4)c2s1 [Example 35]" target_of_assay="USP7 (Homo sapiens)" observed_value="10 to 100 nM"
compound="O=C1C2CC2C(=O)N1Cc1cc2nccc(-c3cc(Cl)cc4c3N([C@@H]3CN[C@@H](CO)C3)CCC4)c2s1 (stereo partly shown) [Example 185]" target_of_assay="USP7 (Homo sapiens)" observed_value="< 10 nM"
compound="O=C1CCC(=O)N1Cc1sc2c(-c3cc(Cl)cc4c3N(C3CCNC3)CCC4)ccnc2c1F (single isomer, unassigned) [Example 108a]" target_of_assay="USP7 (Homo sapiens)" observed_value="< 10 nM"
compound="O=C1CCC(=O)N1Cc1cc2nccc(-c3cc(Cl)cc4c3N([C@@H]3CNC5(CCC5)C3)C[C@@H]3C[C@H]43)c2s1 [Example 165a]" target_of_assay="USP7 (Homo sapiens)" observed_value="10 to 100 nM"
